Values compiled from the supplement of paper PMC10567573.

Hi there, I'd appreciate the recorded protein stability index for every entry that follows.
B1: C9orf25 (parent)
chain: LARKGSLKNGSMGSPVNQQPKKNN

Variants of: B1
Assay: protein stability index of a GFP-peptide fusion (GPS, HEK-293T) (PSI 1-6); higher = more stable;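 note: lentivirally expressed fusions sorted by FACS into six bins by GFP to DsRed ratio, PSI derived from sequencing read proportions per bin multiplied by bin number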
Settings: c terminus: a fixed tail appended
Give bare numbers.

Worked examples, 3 variants total:
MUT: G13Y
READOUT_VALUE: 4.44

MUT: S11A
READOUT_VALUE: 4.44

MUT: K4V
READOUT_VALUE: 4.42

Go through the items and report each one's protein stability index.
1. K8M
2. L1V
3. S14P
4. G5I
5. S14F
6. K4A
7. G10F
8. P15Y

[out]
[4.45, 4.92, 5.02, 3.99, 4.3, 4.74, 4.25, 4.4]
